B1: E3 ubiquitin-protein ligase NEDD4, residues 836 to 881; numbered along this chain, P46934 (parent)
chain: EIEQGFLPKGWEVRHAPNGRPFFIDHNTKTTTWEDPRLKIPAHLRG

variants of: B1; experiment: abundance fitness (aPCA) (normalised: wild type 0, dead -1); higher = more abundant; growth selection in yeast, the domain comes from the species named; settings: Homo sapiens
property.label: abundance fitness
I'd appreciate a reply containing only the number, no unit.

// known answers, use as guide
T31E | -0.44
T32M | -0.705
N18S | -0.241
G19L | -0.923
T30D | -0.347
T31G | -0.398
E34M | -0.054
I24R | -0.609

Qu. Need abundance fitness of P36Y , thanks.
Ans. -0.713

Qu. Okay, and P41R ?
Ans. -0.117

Qu. Okay, and H26F ?
Ans. -0.209
